assay: recombinant UMI read abundance after kanamycin selection (control-corrected) (log10(CPM+1)); higher = more efficient recombination; extreme values may be limits of the assay; sequences stand for … in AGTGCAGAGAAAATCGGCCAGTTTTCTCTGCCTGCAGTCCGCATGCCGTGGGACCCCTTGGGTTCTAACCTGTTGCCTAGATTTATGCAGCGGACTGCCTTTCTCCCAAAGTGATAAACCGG…AGGTTGGTTTCACT; site = the 11-nt donor;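 further: IS621 bridge recombinase in Escherichia coli cells against a fixed T5 target plasmid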
Listing of entries alongside the reported recombinant UMI read abundance (log10).

RESIDUE CODES | recombinant UMI read abundance (log10)
TCATACTCATGGACCGGTTTTCCCGGTAATCCGTATTTGCA (site TCATACTCTTT) | 0.0879
TCACATCCATGGACCGGTTTTCCCGGTAATCCGTATTTGAC (site ACACATCCTGT) | 0
ACACGATCATGGACCGGTTTTCCCGGTAATCCGTATTTGTC (site ACACGAGCTGA) | 0
GACGCCGCATGGACCGGTTTTCCCGGTAATCCGTATTTGGC (site GACGCCGCTGC) | 2.91
ATCACCTCATGGACCGGTTTTCCCGGTAATCCGTATTTGCT (site ATCACCTCTAG) | 2.75
TACGCACCATGGACCGGTTTTCCCGGTAATCCGTATTTGAG (site TACGCACCTCT) | 0.0119
ACTAGAACATGGACCGGTTTTCCCGGTAATCCGTATTTGCG (site ACTAGAACTCG) | 2.19
TAGGAATCATGGACCGGTTTTCCCGGTAATCCGTATTTGCG (site TAAGAATCTCG) | 2.05
CAGTAGACATGGACCGGTTTTCCCGGTAATCCGTATTTGTC (site CAGTAGACTGA) | 2.13
CCGGGGCCATGGACCGGTTTTCCCGGTAATCCGTATTTGAT (site CCGGGGCCTAT) | 0.04
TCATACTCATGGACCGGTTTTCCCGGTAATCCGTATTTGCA (site ACATACTCTTG) | 1.34
ACCAGAACATGGACCGGTTTTCCCGGTAATCCGTATTTGAA (site ACCAGAACTTT) | 1.72
GAACATTCATGGACCGGTTTTCCCGGTAATCCGTATTTGTT (site GAACATTCTAA) | 2.03
CCAGCATCATGGACCGGTTTTCCCGGTAATCCGTATTTGAC (site CTAGTATCTGT) | 0
GAGGAACCATGGACCGGTTTTCCCGGTAATCCGTATTTGTT (site GAGGAACCTAA) | 0
CGGACGTCATGGACCGGTTTTCCCGGTAATCCGTATTTGCT (site CGGACGTCTAG) | 3.06

* * *

assay: recombinant UMI read abundance after kanamycin selection (control-corrected) (log10(CPM+1)); higher = more efficient recombination; extreme values may be limits of the assay; sequences stand for … in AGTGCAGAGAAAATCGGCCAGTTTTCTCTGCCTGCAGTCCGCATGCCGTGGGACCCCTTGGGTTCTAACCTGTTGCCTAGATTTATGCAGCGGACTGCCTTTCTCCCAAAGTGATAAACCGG…AGGTTGGTTTCACT; site = the 11-nt donor
Please use YES whenever recombinant UMI read abundance (log10) is not below 1, and NO whenever it is.

RESIDUE CODES | ASSIGNED CATEGORY
GCCTACACATGGACCGGTTTTCCCGGTAATCCGTATTTGTC (site GCCTACACTGA) | YES
CTATCGACATGGACCGGTTTTCCCGGTAATCCGTATTTGTT (site CTATCGACTAA) | YES
ACATCAACATGGACCGGTTTTCCCGGTAATCCGTATTTGTG (site ACATCGACTCA) | NO
CTGCTACCATGGACCGGTTTTCCCGGTAATCCGTATTTGCT (site CTGCTACCTAT) | NO
GCGAAAACATGGACCGGTTTTCCCGGTAATCCGTATTTGCG (site GCGAAAACTTG) | NO
GGAGCACCATGGACCGGTTTTCCCGGTAATCCGTATTTGCA (site GGTGCACCTTG) | NO
AGAAAGGCATGGACCGGTTTTCCCGGTAATCCGTATTTGCT (site AGAATGGCTAG) | NO
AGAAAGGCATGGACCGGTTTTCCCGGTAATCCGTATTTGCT (site AGAAAGCCTAG) | NO
TAAAGTCCATGGACCGGTTTTCCCGGTAATCCGTATTTGTT (site TAAAGTCCTCA) | NO
CGCCTAACATGGACCGGTTTTCCCGGTAATCCGTATTTGGG (site CGCCTAACTCC) | NO
AGGTTCACATGGACCGGTTTTCCCGGTAATCCGTATTTGCC (site AGGTTCACTGG) | YES
CCGCTTTCATGGACCGGTTTTCCCGGTAATCCGTATTTGAG (site CCGCTTTCTCT) | NO
CCGTCGCCATGGACCGGTTTTCCCGGTAATCCGTATTTGTC (site CCGTCGCCTGA) | NO
CGAGAGTCATGGACCGGTTTTCCCGGTAATCCGTATTTGCC (site CGTGAGTCTGG) | YES
CCAGAATCATGGACCGGTTTTCCCGGTAATCCGTATTTGTG (site CCAGAATCTCA) | YES
GTAGATACATGGACCGGTTTTCCCGGTAATCCGTATTTGAC (site GTAGATACTGT) | YES
TATCAGGCATGGACCGGTTTTCCCGGTAATCCGTATTTGTG (site TATCAGGCTCA) | NO
TATACCCCATGGACCGGTTTTCCCGGTAATCCGTATTTGAC (site TATACCCCTGT) | YES
TCAGAGACATGGACCGGTTTTCCCGGTAATCCGTATTTGCT (site TCAGAGACTAG) | YES
GGTTAGACATGGACCGGTTTTCCCGGTAATCCGTATTTGCC (site GGGTAGACTGG) | YES
AGTGTGTCATGGACCGGTTTTCCCGGTAATCCGTATTTGAC (site ACTGTGTCTGT) | NO
GTGGGTACATGGACCGGTTTTCCCGGTAATCCGTATTTGAC (site GTCGGTACTGT) | NO
ACCGCGGCATGGACCGGTTTTCCCGGTAATCCGTATTTGAT (site ACCGCGGCTAT) | YES
